experiment: self-splicing fitness, log relative to wild type (ln ratio); higher = more splicing; Tetrahymena group I intron in knt gene, E. coli kanamycin selection, DiMSum; sequences stand for … in CUCUCU…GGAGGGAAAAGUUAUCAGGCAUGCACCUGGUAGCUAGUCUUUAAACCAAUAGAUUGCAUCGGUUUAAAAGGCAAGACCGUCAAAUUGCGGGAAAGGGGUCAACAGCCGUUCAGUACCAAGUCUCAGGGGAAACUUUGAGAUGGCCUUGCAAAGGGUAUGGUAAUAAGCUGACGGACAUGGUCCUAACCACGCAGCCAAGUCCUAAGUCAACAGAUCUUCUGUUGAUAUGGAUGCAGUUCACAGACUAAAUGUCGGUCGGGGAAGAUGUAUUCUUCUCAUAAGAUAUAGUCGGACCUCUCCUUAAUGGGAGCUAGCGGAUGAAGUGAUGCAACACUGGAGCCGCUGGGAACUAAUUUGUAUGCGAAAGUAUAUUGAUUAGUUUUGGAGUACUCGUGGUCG; conditions: 37 °C;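 note: selection with 25 µg/mL kanamycin versus none on LB agar overnight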
assay.readout: self-splicing fitness (ln)

[[record]]
residue_sequence = "UUCGAGCAAUAUUACGCCCA"
assay_readout = "self-splicing fitness (ln)"
value_reported = -1.15

[[record]]
residue_sequence = "CGGCAGCAAUAUUACGGCCU"
assay_readout = "self-splicing fitness (ln)"
value_reported = -0.41

[[record]]
residue_sequence = "GCGUAGCAAUAUUACGUAAA"
assay_readout = "self-splicing fitness (ln)"
value_reported = -1.1

[[record]]
residue_sequence = "AUCGAGCAAUAUUACGAUCA"
assay_readout = "self-splicing fitness (ln)"
value_reported = -0.193

[[record]]
residue_sequence = "AGGUAGCAAUAUUACGUGGA"
assay_readout = "self-splicing fitness (ln)"
value_reported = -2.61

[[record]]
residue_sequence = "GCGGAGCAAUAUUACGGUCA"
assay_readout = "self-splicing fitness (ln)"
value_reported = -1.04

[[record]]
residue_sequence = "CUAGAGCAAUAUUACGCGAA"
assay_readout = "self-splicing fitness (ln)"
value_reported = -2.09

[[record]]
residue_sequence = "CGCGAGCAAUAUUACGGACC"
assay_readout = "self-splicing fitness (ln)"
value_reported = -1.47

[[record]]
residue_sequence = "CCUGAGCAAUAUUACGAUCG"
assay_readout = "self-splicing fitness (ln)"
value_reported = -3.46

[[record]]
residue_sequence = "GUAAAGCAAUAUUACGGGAA"
assay_readout = "self-splicing fitness (ln)"
value_reported = -0.287

[[record]]
residue_sequence = "UACAAGCAAUAUUACGAGGU"
assay_readout = "self-splicing fitness (ln)"
value_reported = -1.94

[[record]]
residue_sequence = "CUUUAGCAAUAUUACGUUGC"
assay_readout = "self-splicing fitness (ln)"
value_reported = -3.55

[[record]]
residue_sequence = "UGGUAGCAAUAUUACGGGAG"
assay_readout = "self-splicing fitness (ln)"
value_reported = -1.6

[[record]]
residue_sequence = "CCGAAGCAAUAUUACGCCCC"
assay_readout = "self-splicing fitness (ln)"
value_reported = -2.89

[[record]]
residue_sequence = "AAAGAGCAAUAUUACGUGCG"
assay_readout = "self-splicing fitness (ln)"
value_reported = -1.82

[[record]]
residue_sequence = "GUCGAGCAAUAUUACGGCAA"
assay_readout = "self-splicing fitness (ln)"
value_reported = -1.76

[[record]]
residue_sequence = "UGGGAGCAAUAUUACGUGUC"
assay_readout = "self-splicing fitness (ln)"
value_reported = -2.59

[[record]]
residue_sequence = "AAGUAGCAAUAUUACGGGGA"
assay_readout = "self-splicing fitness (ln)"
value_reported = -1.74

[[record]]
residue_sequence = "UGAAAGCAAUAUUACGAGUA"
assay_readout = "self-splicing fitness (ln)"
value_reported = -0.821

[[record]]
residue_sequence = "AUACAGCAAUAUUACGCCAA"
assay_readout = "self-splicing fitness (ln)"
value_reported = -1.22

[[record]]
residue_sequence = "GGAAAGCAAUAUUACGGUUG"
assay_readout = "self-splicing fitness (ln)"
value_reported = -1.2

[[record]]
residue_sequence = "UACUAGCAAUAUUACGCCAG"
assay_readout = "self-splicing fitness (ln)"
value_reported = -1.03

[[record]]
residue_sequence = "UGACAGCAAUAUUACGCCUG"
assay_readout = "self-splicing fitness (ln)"
value_reported = 0.595

[[record]]
residue_sequence = "CACUAGCAAUAUUACGGCUU"
assay_readout = "self-splicing fitness (ln)"
value_reported = -1.91

[[record]]
residue_sequence = "GAAUAGCAAUAUUACGGGGG"
assay_readout = "self-splicing fitness (ln)"
value_reported = -1.87

[[record]]
residue_sequence = "UGUUAGCAAUAUUACGUAGU"
assay_readout = "self-splicing fitness (ln)"
value_reported = -2.22

[[record]]
residue_sequence = "UUGCAGCAAUAUUACGGUCC"
assay_readout = "self-splicing fitness (ln)"
value_reported = -2.69

[[record]]
residue_sequence = "ACUUAGCAAUAUUACGGCCC"
assay_readout = "self-splicing fitness (ln)"
value_reported = -0.451

[[record]]
residue_sequence = "CUCAAGCAAUAUUACGAGCA"
assay_readout = "self-splicing fitness (ln)"
value_reported = -2.49

[[record]]
residue_sequence = "AGUUAGCAAUAUUACGUAAC"
assay_readout = "self-splicing fitness (ln)"
value_reported = -2.21

[[record]]
residue_sequence = "CGACAGCAAUAUUACGAGCC"
assay_readout = "self-splicing fitness (ln)"
value_reported = -1.68

[[record]]
residue_sequence = "ACCGAGCAAUAUUACGGACC"
assay_readout = "self-splicing fitness (ln)"
value_reported = -0.293

[[record]]
residue_sequence = "CCGUAGCAAUAUUACGGGCA"
assay_readout = "self-splicing fitness (ln)"
value_reported = -2.14

[[record]]
residue_sequence = "AGUGAGCAAUAUUACGGCAC"
assay_readout = "self-splicing fitness (ln)"
value_reported = -1.01


###

assay: self-splicing fitness, log relative to wild type (ln ratio); higher = more splicing; Tetrahymena group I intron in knt gene, E. coli kanamycin selection, DiMSum; sequences stand for … in CUCUCU…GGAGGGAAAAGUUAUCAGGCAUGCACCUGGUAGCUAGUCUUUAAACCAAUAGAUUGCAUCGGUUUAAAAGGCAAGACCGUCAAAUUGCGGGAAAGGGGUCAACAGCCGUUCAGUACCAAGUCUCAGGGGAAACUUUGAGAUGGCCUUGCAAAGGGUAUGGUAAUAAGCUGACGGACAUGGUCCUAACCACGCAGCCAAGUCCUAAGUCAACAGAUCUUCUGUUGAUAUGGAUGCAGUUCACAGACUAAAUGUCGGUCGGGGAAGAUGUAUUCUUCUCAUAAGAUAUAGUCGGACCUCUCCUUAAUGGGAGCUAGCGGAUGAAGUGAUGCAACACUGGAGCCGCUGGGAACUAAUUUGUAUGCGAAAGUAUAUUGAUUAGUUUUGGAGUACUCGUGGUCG; conditions: 37 °C
So basically every entry gets a class from its self-splicing fitness (ln), ranges being interval 1 (below -2), interval 2 (-2 to below -0.7), interval 3 (-0.7 or more)

[[record]]
residue_sequence = "AAACAGCAAUAUUACGACGU"
assigned_label = "interval 3"

[[record]]
residue_sequence = "GGUGAGCAAUAUUACGAUGA"
assigned_label = "interval 1"

[[record]]
residue_sequence = "UGGCAGCAAUAUUACGAGCG"
assigned_label = "interval 3"

[[record]]
residue_sequence = "CUGGAGCAAUAUUACGCGUU"
assigned_label = "interval 2"

[[record]]
residue_sequence = "AAGAAGCAAUAUUACGUCGG"
assigned_label = "interval 2"

[[record]]
residue_sequence = "CGUCAGCAAUAUUACGUGGG"
assigned_label = "interval 2"

[[record]]
residue_sequence = "GUGAAGCAAUAUUACGCGCU"
assigned_label = "interval 2"

[[record]]
residue_sequence = "GCCGAGCAAUAUUACGUGUA"
assigned_label = "interval 2"

[[record]]
residue_sequence = "CAUCAGCAAUAUUACGCGCA"
assigned_label = "interval 3"

[[record]]
residue_sequence = "CUCUAGCAAUAUUACGCGUC"
assigned_label = "interval 1"

[[record]]
residue_sequence = "UCAAAGCAAUAUUACGUGGG"
assigned_label = "interval 1"

[[record]]
residue_sequence = "GCGAAGCAAUAUUACGCGGG"
assigned_label = "interval 1"

[[record]]
residue_sequence = "GCAAAGCAAUAUUACGUAAG"
assigned_label = "interval 3"

[[record]]
residue_sequence = "CGUGAGCAAUAUUACGCGUU"
assigned_label = "interval 1"

[[record]]
residue_sequence = "CAUGAGCAAUAUUACGGCAG"
assigned_label = "interval 2"

[[record]]
residue_sequence = "GGACAGCAAUAUUACGUUCA"
assigned_label = "interval 3"

[[record]]
residue_sequence = "GUCUAGCAAUAUUACGACUC"
assigned_label = "interval 3"

[[record]]
residue_sequence = "GACCAGCAAUAUUACGACUG"
assigned_label = "interval 1"

[[record]]
residue_sequence = "AGUCAGCAAUAUUACGUGGU"
assigned_label = "interval 1"

[[record]]
residue_sequence = "GAAAAGCAAUAUUACGUAAA"
assigned_label = "interval 2"

[[record]]
residue_sequence = "GACCAGCAAUAUUACGGAGA"
assigned_label = "interval 3"

[[record]]
residue_sequence = "ACGCAGCAAUAUUACGCUCA"
assigned_label = "interval 3"

[[record]]
residue_sequence = "UUUGAGCAAUAUUACGUUGG"
assigned_label = "interval 1"

[[record]]
residue_sequence = "GCUGAGCAAUAUUACGCAGA"
assigned_label = "interval 2"

[[record]]
residue_sequence = "ACAUAGCAAUAUUACGGUAG"
assigned_label = "interval 1"

[[record]]
residue_sequence = "UAGAAGCAAUAUUACGUUCG"
assigned_label = "interval 3"

[[record]]
residue_sequence = "ACCGAGCAAUAUUACGAUGA"
assigned_label = "interval 1"

[[record]]
residue_sequence = "UCAUAGCAAUAUUACGCGUU"
assigned_label = "interval 1"

[[record]]
residue_sequence = "CCGGAGCAAUAUUACGUUCG"
assigned_label = "interval 2"

[[record]]
residue_sequence = "GGGAAGCAAUAUUACGCCGU"
assigned_label = "interval 3"

[[record]]
residue_sequence = "GGGUAGCAAUAUUACGGCCG"
assigned_label = "interval 3"

[[record]]
residue_sequence = "AUGUAGCAAUAUUACGUAGA"
assigned_label = "interval 1"

[[record]]
residue_sequence = "CCGUAGCAAUAUUACGGCAG"
assigned_label = "interval 1"

[[record]]
residue_sequence = "GCAUAGCAAUAUUACGGCAU"
assigned_label = "interval 2"

[[record]]
residue_sequence = "AAGGAGCAAUAUUACGGACU"
assigned_label = "interval 2"

[[record]]
residue_sequence = "ACGGAGCAAUAUUACGUUUG"
assigned_label = "interval 1"

[[record]]
residue_sequence = "UAUUAGCAAUAUUACGCGAG"
assigned_label = "interval 3"

[[record]]
residue_sequence = "UGUGAGCAAUAUUACGUGAA"
assigned_label = "interval 2"

[[record]]
residue_sequence = "GGCAAGCAAUAUUACGUUGG"
assigned_label = "interval 1"

[[record]]
residue_sequence = "GACGAGCAAUAUUACGGGAA"
assigned_label = "interval 1"

[[record]]
residue_sequence = "GACCAGCAAUAUUACGUGGG"
assigned_label = "interval 1"

[[record]]
residue_sequence = "CUCCAGCAAUAUUACGGCUU"
assigned_label = "interval 1"

[[record]]
residue_sequence = "CUGGAGCAAUAUUACGUUCU"
assigned_label = "interval 2"

[[record]]
residue_sequence = "UUCGAGCAAUAUUACGUGGU"
assigned_label = "interval 1"

[[record]]
residue_sequence = "GGUCAGCAAUAUUACGAAAC"
assigned_label = "interval 3"

[[record]]
residue_sequence = "UACUAGCAAUAUUACGGCCA"
assigned_label = "interval 3"

[[record]]
residue_sequence = "GAGUAGCAAUAUUACGACGG"
assigned_label = "interval 2"

[[record]]
residue_sequence = "UAACAGCAAUAUUACGAGCA"
assigned_label = "interval 3"

[[record]]
residue_sequence = "GCGAAGCAAUAUUACGACUU"
assigned_label = "interval 2"

[[record]]
residue_sequence = "UUGAAGCAAUAUUACGGAUA"
assigned_label = "interval 3"

[[record]]
residue_sequence = "GGAAAGCAAUAUUACGCGCG"
assigned_label = "interval 3"

[[record]]
residue_sequence = "UGCGAGCAAUAUUACGCGUA"
assigned_label = "interval 2"

[[record]]
residue_sequence = "AGCGAGCAAUAUUACGGACA"
assigned_label = "interval 1"

[[record]]
residue_sequence = "CGGUAGCAAUAUUACGCACU"
assigned_label = "interval 3"

[[record]]
residue_sequence = "AGCAAGCAAUAUUACGUUGA"
assigned_label = "interval 2"

[[record]]
residue_sequence = "UGUCAGCAAUAUUACGGUUC"
assigned_label = "interval 2"

[[record]]
residue_sequence = "ACUUAGCAAUAUUACGAAAU"
assigned_label = "interval 2"

[[record]]
residue_sequence = "AGUCAGCAAUAUUACGGAUA"
assigned_label = "interval 3"

[[record]]
residue_sequence = "CAACAGCAAUAUUACGAGGC"
assigned_label = "interval 2"

[[record]]
residue_sequence = "CACAAGCAAUAUUACGAUCA"
assigned_label = "interval 2"

[[record]]
residue_sequence = "UCUUAGCAAUAUUACGCAGU"
assigned_label = "interval 2"

[[record]]
residue_sequence = "CUAGAGCAAUAUUACGUCUA"
assigned_label = "interval 3"

[[record]]
residue_sequence = "GACUAGCAAUAUUACGCGAA"
assigned_label = "interval 3"

